B1: FUT8 (parent)
chain: YAHQPRTADEIPMEPGDIIGVAGN

Variants of: B1
Test: protein stability index of a GFP-peptide fusion (GPS, HEK-293T) (PSI 1-6); higher = more stable;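 note: lentivirally expressed fusions sorted by FACS into six bins by GFP to DsRed ratio, PSI derived from sequencing read proportions per bin multiplied by bin number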
Settings: c terminus: a fixed tail appended
Measured Attribute: protein stability index
Could you keep your reply to the number by itself?

YAHQPRTADEIPMEPGDIIGKAGN : 3.99
YAHQPRTADEIPMEPMDIIGVAGN : 3.54
YAHQPRTQDEIPMEPGDIIGVAGN : 4.25
YAHQPRTAFEIPMEPGDIIGVAGN : 2.68
YAHQPRTAWEIPMEPGDIIGVAGN : 2.16

Inquiry: Identify the reported protein stability index for the following entry. YAWQPRTADEIPMEPGDIIGVAGN
Reply text: 3.11

Inquiry: Identify the reported protein stability index for the following entry. YAHQPWTADEIPMEPGDIIGVAGN
Reply text: 2.62

Inquiry: Identify the reported protein stability index for the following entry. YAHQPRTADEIPMEPGDIIGVEGN
Reply text: 3.92

Inquiry: Identify the reported protein stability index for the following entry. YAHQPRTADEIPMEPGDIIGVTGN
Reply text: 3.87

Inquiry: Identify the reported protein stability index for the following entry. YAHQPRTAQEIPMEPGDIIGVAGN
Reply text: 3.74

Inquiry: Identify the reported protein stability index for the following entry. YAHQPRTACEIPMEPGDIIGVAGN
Reply text: 3.22

Inquiry: Identify the reported protein stability index for the following entry. YAHQPRTADEIPMEPGDIIGVFGN
Reply text: 2.85

Hey, just so you know, these numbers are from the supplement of paper PMC10567573.
